target: UCHL1, P09936; assay: median log2 fold change of GCK-ALFA target abundance (FLAG IP / Myc IP barcode read proportion) (log2 ratio); each designed protein is fused to an ALFA-tag nanobody in HEK293 cells to bring the named protein to FLAG-tagged glucokinase (GCK); Myc marks an untargeted standard; higher = target protein stabilised (more abundant); details: target protein: 3xFLAG-MCP-GCK-ALFA reporter; HEK293 landing pad (RPLP)
Sequence (P09936 whole entry, looked up, the tested form may be a part): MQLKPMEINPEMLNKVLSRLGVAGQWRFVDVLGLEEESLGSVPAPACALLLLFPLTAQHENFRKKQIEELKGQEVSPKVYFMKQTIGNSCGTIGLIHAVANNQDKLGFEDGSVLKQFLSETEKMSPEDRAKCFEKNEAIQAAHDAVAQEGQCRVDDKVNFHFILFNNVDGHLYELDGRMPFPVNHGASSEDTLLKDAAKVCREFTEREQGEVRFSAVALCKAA
parameter: median log2 fold change
Give bare numbers.

[[record]]
binder = "uchl1_143_7454 (protein) GMVHMEVEVIHIEVSEEDTPEEIREKIMEAMKKAVEKGKAIRIIITVPPDANKRLMVNTTARRAAREFAQEYKDKLKYLEIYARDKETGKEDLIAEIINP"
parameter = "median log2 fold change"
measured = -0.0697

[[record]]
binder = "uchl1_2_7565 (protein) ETIFIGVLVTLTSRDEATGKVYRSRRTLIFTESAIDALVEEIKEDALAFKAQTGVPVTVNIHIVSTNEEVVEKLKKKLEEMAKELAKEGITVNISYTVVK"
parameter = "median log2 fold change"
measured = -0.661

[[record]]
binder = "uchl1_122_7450 (protein) SETVEVVGRREALEAIAAAIREVLAAFGAEVEVRIEELSPNTARLTVTIRLPPISDARLAELLEALEAAMRRLVEERGVPAATAGLAYSRVARAIRRAAA"
parameter = "median log2 fold change"
measured = 0.143


Attention now turns to another entry.
**Q:** Need median log2 fold change of uchl1_89_7592 (protein) DAARLAAARARLRRVLERTRARVEAIIARLGRPDPAMVAAAEAVFAAAERAIADPARAAEWVARAEAAARELVALAPPEYRSDFRMALGRLVNALLGYAA , thanks.
**A:** -0.157
